Test system: OVCAR-5
protocol: NCI tumour cell line growth inhibition, 48 h
Active and inactive are the calls of the source. No stated cut-off is given here; in the data, active = GI50 up to about 1.1 µM and inactive = higher.
The reply should be one of these categories: Yes (active), No (inactive)

[
  {
    "compound": "OC12c3ccccc3C1(N1CCOCC1)CCCCC21OCCCO1 (stereo unspecified)",
    "answerLabel": "No"
  },
  {
    "compound": "O=C(O)CCCc1nc2c(n1Cc1ccccc1)C(=O)c1ccccc1C2=O",
    "answerLabel": "No"
  },
  {
    "compound": "CCOC(=O)n1[nH]c(=O)n(-c2ccccc2)c1=O",
    "answerLabel": "No"
  },
  {
    "compound": "NC(=S)N/N=C\\c1nccc2ccccc12",
    "answerLabel": "Yes"
  },
  {
    "compound": "COC(=O)C1CCC(N2C(=O)CCC2C(=O)OC)=N1 (stereo unspecified)",
    "answerLabel": "No"
  }
]

// next entry
[in] GET /call?item= "NC(=O)c1nnsc1NC=O" returns the recorded outcome of this test.
[out] No

* * *

GI50 listing for selected molecules.
System: ACHN
protocol: NCI tumour cell line growth inhibition, 48 h
The source made the active and inactive calls. No stated cut-off is given here; in the data, active = GI50 up to about 1.1 µM and inactive = higher.

[in] Observed GI50 on ACHN for "O=c1cc(/C=C/c2ccccc2)c2ccc(O/C(=C\c3ccccc3)c3nc4ccccc4c(=O)o3)cc2o1" , please.
[out] 18.5 µM (inactive)

* * *

Tested on: LXFL 529
protocol: NCI tumour cell line growth inhibition, 48 h
Active and inactive are the calls of the source. Rule as the data show it: active = GI50 up to about 1.1 µM and inactive = higher.
Below: a set of entries, each annotated with reported GI50.

Worked examples follow.
[
  {
    "molecule": "O=P1(c2ccccc2)CCCCC1",
    "GI50": "> 100 µM (inactive)"
  },
  {
    "molecule": "N#CCCN(C1=NN(C(=O)CC(=O)Nc2ccc(Cl)cc2)C(c2ccccc2)C1)c1ccc(Cl)cc1 (stereo not drawn)",
    "GI50": "> 100 µM (inactive)"
  }
]

[in] # query: GI50 of entry "C[N+](C)=c1[nH]c2ccccc2[nH]1"
[out] > 100 µM (inactive)

* * *

Tested on: SF-539
protocol: NCI tumour cell line growth inhibition, 48 h
The source made the active and inactive calls. Rule as the data show it: active = GI50 up to about 1.1 µM and inactive = higher.
In this exercise, the only acceptable responses are active, inactive

Known results for molecules:
[
  {
    "molecule": "O=C(O)c1ccc2c(c1)C(=O)N(c1ccc(S(=O)(=O)c3ccc(N4C(=O)c5ccc(C(=O)O)cc5C4=O)cc3)cc1)C2=O",
    "answerLabel": "inactive"
  },
  {
    "molecule": "COC(=O)CCC(=O)C(CC(=O)OC)C(=O)CCC(=O)NCCc1ccccc1 (centres undefined)",
    "answerLabel": "inactive"
  },
  {
    "molecule": "CC(C)=CC(=O)C[C@H]1C(=O)O[C@@H]2C[C@H]3C(C)=CC(=O)[C@@H](O)[C@]3(C)[C@H]3[C@@]4(O)OC[C@]32[C@@H]1[C@@H](C)[C@H]4O",
    "answerLabel": "active"
  },
  {
    "molecule": "COC(=O)C1CCC(=O)N1C(c1ccc2c(c1)OCO2)c1ccc2c(c1)OCO2 (centres undefined)",
    "answerLabel": "inactive"
  }
]

[in] What classification did "CCN1C(=O)C(=C/C=C/c2ccc(N(CC)CC)cc2)C(=O)N(CC)C1=S" end up with in this test?
[out] inactive

[in] // same read-out, input: "COc1ccc(-c2csc(=[N+]3CCCCC3)s2)cc1"
[out] inactive

[in] Follow-up item: "CCOC(=O)c1nnc2c(C(=O)OCC)c3ccccc3n2c1N"
[out] inactive

[in] Next molecule up: "CC(=NNC(=S)Nc1cccc(C)c1)c1cccc(C(C)=NNC(=S)Nc2cccc(C)c2)n1"
[out] inactive

[in] Also C=C1c2[nH]c3ccccc3c2C2C(CC)C1CCN2C (centres undefined) , if possible.
[out] inactive
